# Target Or Test System: human CB1 receptor (Homo sapiens)
# Construct: purchased Perkin Elmer/NEN; host or cells: HEK-293 cells, stably transfected (membranes)
# Method Notes: biochemical
# Assay type: binding
# Details: displacement of [3H]CP55940, hCB1 HEK-293 membranes; read-out: CB1 IC50
Exercise: for every item that follows, state its recorded pIC50.
Answers are plain numbers, as −log10 of the molar value.

Field: example entries. Status: answers known.
C#CCCCCC(C)(C)c1cc(O)c(C2C=C(C)C3CC2C3(C)C)c(O)c1 (single isomer, unassigned; (+)) | 7.59
CCCCCCC(C)(C)c1cc(O)c([C@H]2CC(=O)[C@H]3C[C@@H]2C3(C)C)c(OC(=O)CCC(=O)O)c1 | 7.39
CCCCC(C)(C)c1cc(O)c(C2CC(=O)C3CC2C3(C)C)c(OC(=O)CCC(=O)O)c1 (single isomer, unassigned; (-)) | 6.50
CC1=CC(c2c(O)cc(-c3ccc(C(C)(C)C)cc3)cc2O)C2CC1C2(C)C (stereo not shown) | 6.19
CCCCCCC(C)(C)c1cc(O)c([C@H]2C/C(=N/O)[C@H]3C[C@@H]2C3(C)C)c(O)c1 | 7.03
C#CCCCCC(C)(C)c1cc(O)c([C@H]2CC(=O)[C@H]3C[C@@H]2C3(C)C)c(O)c1 | 7.89

Query pIC50 on human CB1 receptor (Homo sapiens) for CCC(C)(CC)c1cc(O)c(C2CC(=O)C3CC2C3(C)C)c(O)c1 (single isomer, unassigned; (-))
5.41

====

# Target Or Test System: human CB1 receptor (Homo sapiens, UniProt P21554)
# Construct: purchased Perkin Elmer/NEN; host or cells: HEK-293 cells, stably transfected (membranes)
# Sequence (P21554 whole entry): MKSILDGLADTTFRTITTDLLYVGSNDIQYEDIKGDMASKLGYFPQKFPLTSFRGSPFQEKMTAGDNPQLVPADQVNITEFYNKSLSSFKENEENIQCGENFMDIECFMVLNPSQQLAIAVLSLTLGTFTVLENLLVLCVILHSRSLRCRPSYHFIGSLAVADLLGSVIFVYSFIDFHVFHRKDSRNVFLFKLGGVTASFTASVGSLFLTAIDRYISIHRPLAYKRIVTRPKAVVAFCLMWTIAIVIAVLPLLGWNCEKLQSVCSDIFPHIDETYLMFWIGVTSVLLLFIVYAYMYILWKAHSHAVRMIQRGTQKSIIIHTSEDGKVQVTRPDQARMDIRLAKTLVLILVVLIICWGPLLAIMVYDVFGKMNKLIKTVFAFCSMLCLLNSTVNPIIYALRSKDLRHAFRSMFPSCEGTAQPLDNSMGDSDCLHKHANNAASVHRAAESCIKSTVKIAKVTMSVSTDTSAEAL
# Method Notes: biochemical
# Type: binding
# Details: CB1 IC50
Parameter Measured: pIC50
Give bare numbers, as −log10 of the molar value.

Consider the compound CCCCCCC(C)(C)c1cc(O)c2c(c1)OC(C)(C)[C@@H]1CC=C(CO)C[C@@H]21 [HU-210, reference compound] and give its measured pIC50.
9.41

====

# Target Or Test System: human CB2 receptor (Homo sapiens)
# Method Notes: biochemical
# Assay type: binding
# Design: purchased Perkin Elmer/NEN; host or cells: CHO cells, stably transfected (membranes)
# Details: IC50 CB1/IC50 CB2
Checkbox rule: CB2/CB1 affinity ratio lower than 80 = 1.0; CB2/CB1 affinity ratio not lower than 80 = 0.0.

Examples with answers:
CCC(C)(CC)c1cc(O)c(C2CC(=O)C3CC2C3(C)C)c(O)c1 (single isomer, unassigned; (-)) [Compound M] | 0.0
CCCCCCC(C)(C)c1cc(O)c([C@H]2CC(=O)[C@H]3C[C@@H]2C3(C)C)c(OC(=O)CCC(=O)O)c1 [Compound R] | 1.0
CCCCC(C)(C)c1cc(O)c(C2CC(=O)C3CC2C3(C)C)c(OC(=O)CCC(=O)O)c1 (single isomer, unassigned; (-)) [Compound Y] | 1.0

# strict comparison: is reported CB2/CB1 affinity ratio < 80? input = CC(C)(CCc1ccccc1)c1cc(O)c(C2CC(=O)C3CC2C3(C)C)c(O)c1 (centres unmarked) [Compound G]
0.0

====

# Target Or Test System: human CB2 receptor (Homo sapiens)
# Method Notes: biochemical
# Type: binding
# Parameters: purchased Perkin Elmer/NEN; host or cells: CHO cells, stably transfected (membranes)
# Details: displacement of [3H]WIN 55212-2, hCB2 CHO membranes
Parameter Measured: pIC50
Answers are plain numbers, as −log10 of the molar value.

The following molecules have reported results that may help.
CCCCC(C)(C)c1cc(O)c(C2C=C(COC(=O)C(C)(C)C)[C@H]3C[C@@H]2C3(C)C)c(O)c1 (stereo partly shown) | 7.38
CCCCCCC(C)(C)c1cc(O)c(C2CC(O)C3CC2C3(C)C)c(O)c1 (single isomer, unassigned; (-)) | 8.46
CC(C)(CCCCBr)c1cc(O)c(C2CC(=O)C3CC2C3(C)C)c(O)c1 (single isomer, unassigned; (-)) | 9.44

Please find the next molecule below.
Entry CC(C)(CCc1ccccc1)c1cc(O)c(C2CC(=O)C3CC2C3(C)C)c(O)c1 (stereo not shown) : reported pIC50 = ?
8.18

====

# Target Or Test System: human CB1 receptor (Homo sapiens, UniProt P21554)
# Construct: purchased Perkin Elmer/NEN; host or cells: HEK-293 cells, stably transfected (membranes)
# Method Notes: biochemical
# Type: binding
# Details: CB1 IC50, displacement of [3H]CP55940, hCB1 HEK-293 membranes
Parameter Measured: IC50 (µM)
Give bare numbers, in µM.

Enter reported IC50 observed with human CB1 receptor (Homo sapiens, UniProt P21554) for CCCCCCC(C)(C)c1cc(OC)c(C2C=C(CO)C3CC2C3(C)C)c(OC)c1 (single isomer, unassigned; (+)) [HU-308, reference compound]
3.6

====

# Target Or Test System: human CB2 receptor (Homo sapiens, UniProt P34972)
# Sequence (P34972 whole entry): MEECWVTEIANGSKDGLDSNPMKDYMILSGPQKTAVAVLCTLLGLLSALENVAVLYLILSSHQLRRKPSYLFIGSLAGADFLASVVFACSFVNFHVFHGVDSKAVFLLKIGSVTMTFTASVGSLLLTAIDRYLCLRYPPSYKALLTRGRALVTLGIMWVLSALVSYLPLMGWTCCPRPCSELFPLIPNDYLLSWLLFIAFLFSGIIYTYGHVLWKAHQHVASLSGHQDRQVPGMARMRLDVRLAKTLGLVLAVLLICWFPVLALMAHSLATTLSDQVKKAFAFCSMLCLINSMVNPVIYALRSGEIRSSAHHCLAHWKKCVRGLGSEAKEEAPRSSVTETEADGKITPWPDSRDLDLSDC
# Method Notes: biochemical
# Format: binding
# Set-up: purchased Perkin Elmer/NEN; host or cells: CHO cells, stably transfected (membranes)
# Details: IC50 CB1/IC50 CB2
Assignment: determine reported CB2/CB1 affinity ratio for the given molecules.
Numbers only.

Examples with answers:
C#CCCCCC(C)(C)c1cc(O)c([C@H]2CC(=O)[C@H]3C[C@@H]2C3(C)C)c(O)c1 | 38
CCCCCCC(C)(C)c1cc(OC)c(C2CC(=O)C3CC2C3(C)C)c(OC)c1 (single isomer, unassigned; (-)) | 62
CCCCCCC(C)(C)c1cc(O)c([C@@H]2CC(=O)C3CC2C3(C)C)c(O)c1 (single isomer, unassigned; (+)) [(+) enantiomer of compound A, reference compound] | 10

# context switch: different molecule, same CB2/CB1 affinity ratio
Looking for the measured CB2/CB1 affinity ratio of CCCCC(C)(C)c1cc(O)c(C2CC(=O)C3CC2C3(C)C)c(O)c1 (single isomer, unassigned; (-)) , can you help?
117

The origin of these recorded values is patent US20050020544A1.
